# measurement.protocol: One-week comparative intranasal irritation study in rats: toxicokinetics
# applied.conditions: male, rat, in vivo, inhaled or intranasal, 35 mg, intranasal 35 mg (2.50 mg/cm^2) once daily, Day 6
property.label: Tmax (h)
Report only the number, with the unit h understood.

## Input I have this compound here, Cc1cc(C[C@@H](NC(=O)N2CCC(c3cc4ccccc4[nH]c3=O)CC2)C(=O)N2CCN(C3CCN(C)CC3)CC2)cc2cn[nH]c12 , and I need its recorded Tmax.
## Output 1

---

# measurement.protocol: Pharmacokinetics in the rabbit after IV and IN administration
# Type: in vivo, New Zealand White rabbits
# applied.conditions: male, New Zealand White, plasma, IV 0.5 mg/kg
property.label: clearance (mL/min/kg)
Answer with a number only, understood to be in mL/min/kg.

## Input Fill in: clearance of Cc1cc(C[C@@H](NC(=O)N2CCC(c3cc4ccccc4[nH]c3=O)CC2)C(=O)N2CCN(C3CCN(C)CC3)CC2)cc2cn[nH]c12 [Compound I] is ___
## Output 7.9
